This collection of values is drawn from patent US20110039770A1.

Biological target: T1, PKC-βII (purified isoform) (Homo sapiens (Human), UniProt P05771 2-621)
T1 construct: also called PKC-beta II; PKC beta 2
T1 sequence (P05771 other isoform, or with tags, fused parts or gaps limits assumed): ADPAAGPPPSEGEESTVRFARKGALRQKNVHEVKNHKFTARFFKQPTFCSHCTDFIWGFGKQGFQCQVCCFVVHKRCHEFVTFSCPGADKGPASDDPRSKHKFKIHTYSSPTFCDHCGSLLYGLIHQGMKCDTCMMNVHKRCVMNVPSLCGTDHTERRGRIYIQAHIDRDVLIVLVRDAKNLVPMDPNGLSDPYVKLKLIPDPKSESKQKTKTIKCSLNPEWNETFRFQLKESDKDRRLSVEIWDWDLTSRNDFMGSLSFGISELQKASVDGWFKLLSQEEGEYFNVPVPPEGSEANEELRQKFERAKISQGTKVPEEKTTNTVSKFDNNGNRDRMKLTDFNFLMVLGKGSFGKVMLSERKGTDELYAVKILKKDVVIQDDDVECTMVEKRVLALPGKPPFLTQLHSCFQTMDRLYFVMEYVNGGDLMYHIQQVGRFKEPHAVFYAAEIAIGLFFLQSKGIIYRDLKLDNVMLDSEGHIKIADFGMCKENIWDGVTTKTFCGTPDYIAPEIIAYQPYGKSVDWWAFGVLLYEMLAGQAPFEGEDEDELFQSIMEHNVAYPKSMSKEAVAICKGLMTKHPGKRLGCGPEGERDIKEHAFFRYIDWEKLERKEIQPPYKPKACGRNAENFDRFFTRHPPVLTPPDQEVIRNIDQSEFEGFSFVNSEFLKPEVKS
Experiment: competitive ELISA, coated purified PKC-βII, vs anti-PKC βII (SC-210); PRE 200 µM
assay.metric: relative binding capacity (100-%n, DMSO subtracted) (%)
Express the result in % but write the number alone.

[Q] Quick one: relative binding capacity (100-%n, DMSO subtracted) for Ac-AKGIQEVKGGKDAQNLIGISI-NH2 (also called peptide PRE 5) [PRE 5] ?
[A] 0

[Q] Next binder: Ac-RDAQNLI-NH2 (Ac-RDAQNLI-NH2; also called peptide PRE 13) [PRE 13]
[A] 0

[Q] Try the binder ILEDKGGDAQNLIGISI (also called peptide PRE 8) [PRE 8]
[A] 0

[Q] Cool, now Ac-KDAQNLIGISI-NH2 (also called peptide PRE 4) [PRE 4]
[A] 1.18

[Q] Also, Ac-ISIGILNQADK-NH2 (also called peptide PRE 10) [PRE 10] please.
[A] 0

[Q] Now consider Ac-ISIGILQNADK-NH2 (also called peptide PRE 7) [PRE 7] and answer again.
[A] 2.59

[Q] Also, Ac-KDANQLIGISI-NH2 (also called peptide PRE 6) [PRE 6] please.
[A] 0
